The entries below are paired with their reported Average change in body weight.
Species: Mus musculus
measurement-protocol: Average change in body weight from onset to termination of drug therapy in mice bearing the L1210 Leukemia at 100 mg / kg
Assay type: functional
A number alone suffices; assume %.

Field: example entries. Status: answers known.
{"columns": ["cpd-smiles", "Average change in body weight, %"],
 "data": [
  ["Cc1ccc(C(=O)O)cc1S(=O)(=O)N/N=C/c1cccc[n+]1[O-]", 4.1],
  ["COc1ccc(S(=O)(=O)N/N=C/c2cccc[n+]2[O-])cc1OC", -8.7]
]}

Here is another compound to look at.
(Q) Query (compound): CN(C)c1ccc(S(=O)(=O)N/N=C/c2cccc[n+]2[O-])cc1 ; field requested: Average change in body weight
(A) -3.2

---

Species on record: Mus musculus
measurement-protocol: The average survival time (days) of mice bearing the L1210 Leukemia at 100 mg / kg
Format: functional
measurement-label: Average survival (days)
A number alone suffices; assume days.

(Q) Query (compound): Cc1ccc(S(=O)(=O)N/N=C/c2cccc[n+]2[O-])cc1C(=O)O ; field requested: Average survival
(A) 11.8

(Q) What about COc1ccc(C(=O)O)cc1S(=O)(=O)N/N=C/c1cccc[n+]1[O-] ?
(A) 11.6

(Q) What about O=S(=O)(N/N=C/c1cccc[n+]1[O-])c1ccc(O)cc1 ?
(A) 12.2

(Q) What about CN(C)c1ccc(S(=O)(=O)N/N=C/c2cccc[n+]2[O-])cc1 ?
(A) 16.8

(Q) What about Cc1ccc(C(=O)O)cc1S(=O)(=O)N/N=C/c1cccc[n+]1[O-] ?
(A) 12

---

Species on record: Mus musculus
measurement-protocol: Average change in body weight from onset to termination of drug therapy in mice bearing the L1210 Leukemia at 100 mg / kg
Type: functional
measurement-label: Average change in body weight (%)
A number alone suffices; assume %.

{"columns": ["cpd-smiles", "unit", "Average change in body weight"],
 "data": [
  ["O=S(=O)(N/N=C/c1cccc[n+]1[O-])c1ccc(O)cc1", "%", -0.8],
  ["COc1ccc(C(=O)O)cc1S(=O)(=O)N/N=C/c1cccc[n+]1[O-]", "%", 8.1]
]}

(Q) Query (compound): Cc1ccc(S(=O)(=O)N/N=C/c2cccc[n+]2[O-])cc1C(=O)O ; field requested: Average change in body weight
(A) -5

Recorded values, source ChEMBL document CHEMBL1121450.
